Biological target: T1, His-tagged CEACAM1 (human, UniProt P13688 35-428)
T1 construct: 45 kDa SPR analyte; also called CEACAM1-HIS; CEACAM1 analyte
T1 sequence: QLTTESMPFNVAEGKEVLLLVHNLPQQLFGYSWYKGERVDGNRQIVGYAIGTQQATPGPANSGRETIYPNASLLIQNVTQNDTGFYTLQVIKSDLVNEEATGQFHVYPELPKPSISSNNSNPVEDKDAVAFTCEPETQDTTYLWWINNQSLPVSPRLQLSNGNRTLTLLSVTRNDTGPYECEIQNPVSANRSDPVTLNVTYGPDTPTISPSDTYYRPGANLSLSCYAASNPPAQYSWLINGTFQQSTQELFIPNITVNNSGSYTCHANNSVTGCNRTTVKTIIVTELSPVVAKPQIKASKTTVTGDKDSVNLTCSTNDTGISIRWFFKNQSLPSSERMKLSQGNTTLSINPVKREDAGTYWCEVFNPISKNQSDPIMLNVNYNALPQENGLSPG
Assay: SPR single-cycle, supernatant IgG captured
property: pKd
Reminder that pKd is minus the log10 of a molar concentration.

INSERT INTO results (binder, property, obsvalue) VALUES
  ('CP09B03/Vκ8 S29A (antibody, IgG4, V domains shown, IgG4 (S241P), kappa) VH: EVQLLESGGGLVQPGGSLRLSCAASGFTFNAHAISWVRQAPGKGLEWVATISSGGTYTYYPDSVKGRFTISRDNSKNTLYLQMNSLKAEDTAMYYCARHDFDYDAAWFAYWGQGTLVTVSS VL: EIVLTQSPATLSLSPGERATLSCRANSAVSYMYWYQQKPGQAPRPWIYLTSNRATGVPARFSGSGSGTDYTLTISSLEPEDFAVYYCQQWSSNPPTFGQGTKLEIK', 'pKd', 6.59),
  ('CP09F03/Vκ8 S29A (antibody, IgG4, V domains shown, IgG4 (S241P), kappa) VH: EVQLLESGGGLVQPGGSLRLSCAASGFTFNNHGMSWVRQAPGKGLEWVATISSGGTYTYYPDSVKGRFTISRDNSKNTLYLQMNSLKAEDTAMYYCARHDFDYDAAWFAYWGQGTLVTVSS VL: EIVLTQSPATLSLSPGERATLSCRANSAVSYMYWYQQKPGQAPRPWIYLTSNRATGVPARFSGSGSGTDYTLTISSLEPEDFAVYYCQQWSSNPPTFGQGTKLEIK', 'pKd', 6.00),
  ('CP08A06/Vκ8 S29A (antibody, IgG4, V domains shown, IgG4 (S241P), kappa) VH: EVQLLESGGGLVQPGGSLRLSCAASGYSFSSHGMSWVRQAPGKGLEWVATISSGGTYTYYPDSVKGRFTISRDNSKNTLYLQMNSLKAEDTAMYYCARHDFDYDAAWFAYWGQGTLVTVSS VL: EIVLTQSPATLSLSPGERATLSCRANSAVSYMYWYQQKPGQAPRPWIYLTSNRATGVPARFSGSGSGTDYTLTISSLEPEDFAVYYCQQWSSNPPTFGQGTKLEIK', 'pKd', 6.36),
  ('CP08B11/Vκ8 S29A (antibody, IgG4, V domains shown, IgG4 (S241P), kappa) VH: EVQLLESGGGLVQPGGSLRLSCAASGFTFTNHGMSWVRQAPGKGLEWVATISSGGTYTYYPDSVKGRFTISRDNSKNTLYLQMNSLKAEDTAMYYCARHDFDYDAAWFAYWGQGTLVTVSS VL: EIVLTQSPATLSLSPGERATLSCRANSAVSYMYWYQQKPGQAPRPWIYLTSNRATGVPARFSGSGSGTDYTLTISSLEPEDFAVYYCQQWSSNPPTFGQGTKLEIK', 'pKd', 6.21),
  ('CP09B02/Vκ8 S29A (antibody, IgG4, V domains shown, IgG4 (S241P), kappa) VH: EVQLLESGGGLVQPGGSLRLSCAASGFTFTSHAISWVRQAPGKGLEWVATISSGGTYTYYPDSVKGRFTISRDNSKNTLYLQMNSLKAEDTAMYYCARHDFDYDAAWFAYWGQGTLVTVSS VL: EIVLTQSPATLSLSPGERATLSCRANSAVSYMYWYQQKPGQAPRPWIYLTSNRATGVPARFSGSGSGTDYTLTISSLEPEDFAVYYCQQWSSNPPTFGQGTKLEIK', 'pKd', 6.47),
  ('CP08C04/Vκ8 S29A (antibody, IgG4, V domains shown, IgG4 (S241P), kappa) VH: EVQLLESGGGLVQPGGSLRLSCAASGFTFSSHGMSWVRQAPGKGLEWVATISSGGTYTYYPDSVKGRFTISRDNSKNTLYLQMNSLKAEDTAMYYCARHDFDYDAAWFAYWGQGTLVTVSS VL: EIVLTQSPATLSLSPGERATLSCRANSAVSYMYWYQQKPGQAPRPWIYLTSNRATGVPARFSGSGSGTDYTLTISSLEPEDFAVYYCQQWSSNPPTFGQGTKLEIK', 'pKd', 5.92),
  ('CP08B04/Vκ8 S29A (antibody, IgG4, V domains shown, IgG4 (S241P), kappa) VH: EVQLLESGGGLVQPGGSLRLSCAASGFIFSSHGMSWVRQAPGKGLEWVATISSGGTYTYYPDSVKGRFTISRDNSKNTLYLQMNSLKAEDTAMYYCARHDFDYFPAWFALWGQGTLVTVSS VL: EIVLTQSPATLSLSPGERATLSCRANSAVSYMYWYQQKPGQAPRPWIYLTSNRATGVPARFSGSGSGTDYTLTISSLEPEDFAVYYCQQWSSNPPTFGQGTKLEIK', 'pKd', 6.39),
  ('CP08F07/Vκ8 S29A (antibody, IgG4, V domains shown, IgG4 (S241P), kappa) VH: EVQLLESGGGLVQPGGSLRLSCAASGFTFTDHAISWVRQAPGKGLEWVATISSGGTYTYYPDSVKGRFTISRDNSKNTLYLQMNSLKAEDTAMYYCARHDFDYDAAWFAYWGQGTLVTVSS VL: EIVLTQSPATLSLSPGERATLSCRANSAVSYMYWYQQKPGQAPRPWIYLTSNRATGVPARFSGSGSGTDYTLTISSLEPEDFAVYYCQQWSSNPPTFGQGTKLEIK', 'pKd', 6.33);

In: What does the record list as pKd for CP09A04/Vκ8 S29A (antibody, IgG4, V domains shown, IgG4 (S241P), kappa) VH: EVQLLESGGGLVQPGGSLRLSCAASGFSFNAHAMSWVRQAPGKGLEWVATISSGGTYTYYPDSVKGRFTISRDNSKNTLYLQMNSLKAEDTAMYYCARHDFDYDAAWFAYWGQGTLVTVSS VL: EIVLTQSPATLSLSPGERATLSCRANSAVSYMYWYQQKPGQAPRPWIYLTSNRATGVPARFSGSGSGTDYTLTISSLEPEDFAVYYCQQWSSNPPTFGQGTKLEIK ?
Out: 6.40

In: Try VH1/Vκ8 S29A (antibody, IgG4, V domains shown, IgG4 (S241P), kappa; also called Parent; Parent (VH1/Vκ8 S29A)) VH: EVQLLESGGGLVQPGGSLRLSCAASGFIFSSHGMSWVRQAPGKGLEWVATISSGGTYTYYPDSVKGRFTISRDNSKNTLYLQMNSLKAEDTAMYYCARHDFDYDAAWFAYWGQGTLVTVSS VL: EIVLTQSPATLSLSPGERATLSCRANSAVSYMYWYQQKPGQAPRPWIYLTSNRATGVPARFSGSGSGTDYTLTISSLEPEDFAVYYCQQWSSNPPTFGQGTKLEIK next.
Out: 6.23

Every entry's value here was drawn from patent US20250074980A1.
